For each record, write down the corresponding EC50.
target: Claudin18.2-His protein (human); assay: indirect ELISA on coated Claudin18.2-His
Use µg/mL as the unit, but write only the number.

69D5C1 (antibody, V domains shown) VH: EVKLVESGGGLVQPGGSRKLSCAASGFTFRDYGMAWVRQAPGKGPEWITFISNLAYSIYYADTVTGRFTISTENAKNTLYLEMSSLRSEDTAMYYCAVIYYGNSFAYWGQGTLVTV VL: DIVLTQSPSSLTVTAGEKVTMSCKSSQSLLNSGNLRNYLTWYQQKPGQPPKLLIYWASTRESGVPDRFTGSGSGTDFTLTISSLQAEDLAIYYCQNGYSYPFTFGSGTKLEIK has a reported EC50 of 0.00266

422F4B6 (antibody, V domains shown) VH: DVQLVESGGGLVQPGGSRKLSCAASGFSFSSFGMHWVRQAPEKGLEWVAYISSGSSPIYYADTVKGRFIISRDNPKNTLFLQMTSLRSEDTAMYFCARIYYGNSFAYWGQGTLVTVSA VL: DIVMTQSPSSLTVTAGEKVTMSCKSSQTLLNSGNQKNYLTWYQQKPGQPPKLLIYWASTRESGVPDRFTGSGSGTDFTLTISSVQAEDLAVYYCQNAYSYPLTFGSGTKLELK has a reported EC50 of 0.149

234E1F12 (antibody, V domains shown) VH: QAYLQQSGAELVRSGASVKMSCKASGYTFTSHNMHWVKQTPRQGLEWIGYIYPGNGDTNYNQKFKGKATLTADTSSSTAYMQISSLTSEDSAVYFCTRDYYGNSFAYWGQGTLVTVSA VL: DIVMTQSPSSLTEKAGERVSMSCKSSQSLFNSGNQKNYLTWYQQKPGQPPKLLIYWASTRESGVPDRFTGSGSGTDFTLTISSVQAEDLAVYYCQNAYWYPFTFGAGTKLELK has a reported EC50 of 0.105
